Listed molecules paired with reported growth
Test system: NCI-H23 lung
experimental.details: NCI-60 one-dose screen, 48 h (100 = growth as untreated, 0 = no growth, -100 = all killed)
measurement.setup: 10 µM unless noted
Compounds without any hit were thinned out: in the full panel of roughly 83,000, 20% have a hit. Calls of active or inactive are those of the source. Rule for the calls: active = growth percent below 10; inactive = the rest.

| molecule | test.readout | endpoint.result |
| --- | --- | --- |
| CC([C@H]1CCC2C3CCC4C[C@@H](N)CC[C@]4(C)C3CC[C@@]21C)N(C)C (stereo not given in full) | growth | 77.1% (inactive) |

INPUT: Write down the reported growth (system: NCI-H23 lung) of COc1ccc(/C=C2\SC(=O)N(Cc3cc(=O)oc4ccc(OC)cc34)C2=O)cc1
OUTPUT: 71.6% (inactive)

INPUT: Output reported growth of the molecule COc1ccc2c(c1)cn1c3ccc(O)cc3[nH]c(=O)c21 on NCI-H23 lung.
OUTPUT: 23.3% (inactive)

INPUT: Give growth; test system NCI-H23 lung; molecule COc1ccc2cnc(N)c(C#Cc3cc(C(=O)Nc4ccc(CN5CCN(C)CC5)c(C(F)(F)F)c4)cnc3C)c2c1
OUTPUT: 52.3% (inactive)

INPUT: Report growth on NCI-H23 lung for this entry: Cc1ccc(C(=O)Nc2ccc(CN3CCN(C)CC3)c(C(F)(F)F)c2)cc1C#Cc1cnc(N)c2ccc(C#N)cc12
OUTPUT: 48.3% (inactive)

INPUT: // fetch growth for CCCCCSc1ccc2nc(NC(=O)OCCC)sc2c1 ; system: NCI-H23 lung
OUTPUT: 25.5% (inactive)

INPUT: Provide the reported growth (system: NCI-H23 lung) for CCCCCCNc1nc(N2CCOCC2)c2[nH]c(NCCCCCC)nc2n1
OUTPUT: -94.5% (active)

INPUT: Quote growth with test system NCI-H23 lung for CC[C@H](Nc1ncnc2nc[nH]c12)c1nc2cccc(NCc3ccc(C(=O)NO)nc3)c2c(=O)n1-c1ccccc1
OUTPUT: 41.1% (inactive)

INPUT: Fill: growth (NCI-H23 lung) for this molecule CCCCCCCCCc1cc[n+](CC(=O)c2ccc([N+](=O)[O-])cc2)cc1
OUTPUT: 14.2% (inactive)

INPUT: Give growth only, for O=C(O)c1ccc(Br)nc1 , using NCI-H23 lung data.
OUTPUT: 102% (inactive)

INPUT: Report value: growth, system: NCI-H23 lung, molecule: COCC(=O)NNc1[nH]c(-c2ccc(OC)cc2)cc1C#N
OUTPUT: 100% (inactive)

INPUT: Give reported growth for CCC(CCCN1C(=O)c2ccccc2C1=O)Nc1cc(OC)cc2c(C)ccnc12 (stereo not given) (NCI-H23 lung)
OUTPUT: 117% (inactive)

INPUT: State measured growth of the molecule Cc1nc(NC(=S)Nc2ccc(F)cc2)sc1C(=O)NNC(=S)Nc1ccc(F)cc1 with NCI-H23 lung.
OUTPUT: 38% (inactive)

INPUT: Give the observed growth of CC(C)CCCCCOC(=O)c1ccccc1SSc1ccccc1C(=O)OCCCCCC(C)C for NCI-H23 lung.
OUTPUT: 108% (inactive)

INPUT: Please report the measured growth for CCOC(=O)CSSCC(=O)OCC tested on NCI-H23 lung.
OUTPUT: 112% (inactive)

---

Test system: SK-MEL-5 melanoma
experimental.details: NCI-60 one-dose screen, 48 h
measurement.setup: 10 µM unless noted
The panel holds about 83,000 compounds, 20% with a hit somewhere; the sample as a whole holds those more often. Active and inactive are the calls of the source. Rule for the calls: active = growth percent below 10; inactive = the rest.
Your answer must be one of the following: active, inactive

Examples with answers:
| compound | assigned.category |
| --- | --- |
| Cc1cc(CSc2ccc(Cl)cc2)ccc1N | inactive |
| O=[N+]([O-])c1ccc(-c2ncc(-c3ccc(O)cc3O)[nH]2)cc1 | inactive |

Continue with the next compound.
INPUT: Which outcome did this test record for the compound CCCCCCNC(=O)Oc1ccc(/C(=C(/C)Cc2ccc(OC)cc2)c2ccc(OCCN(C)C)cc2)cc1 ?
OUTPUT: active

---

Quick reference for growth among some compounds
Tested on: OVCAR-8 ovarian
experimental.details: NCI-60 one-dose screen, 48 h (100 = growth as untreated, 0 = no growth, -100 = all killed)
measurement.setup: 10 µM unless noted
About 83,000 compounds went through this panel and 20% of them were active in at least one assay; those are over-represented in the sample as a whole.
Only the number, expressed in %, is required.

| compound | readout.units | growth |
| --- | --- | --- |
| CC(=O)Nc1ccc(C(=O)/C=C/c2ccc(N(C)C)cc2)cc1 | % | 102 |
| Cc1c(Cc2ccccc2)c(=O)oc2c(C)c(OCc3n[nH]c(=S)o3)ccc12 | % | 30.6 |
| O=C(O)c1ccc(Br)nc1 | % | 98.3 |
| O=C(/C=C\c1ccc(NCc2ccc(C(=O)O)cc2)cc1)CCl | % | 66.9 |

With those in mind, consider the next compound.
INPUT: Find growth for O=C(O)CS(=O)c1ccc(Cl)cc1 (stereo not given) on OVCAR-8 ovarian and write it down.
OUTPUT: 99

---

Test system: RXF 393 renal
experimental.details: NCI-60 one-dose screen, 48 h
measurement.setup: 10 µM unless noted
About 83,000 compounds went through this panel and 20% of them were active in at least one assay; those are over-represented in the sample as a whole. Calls of active or inactive are those of the source. The calls were made as follows: active = growth percent below 10; inactive = the rest.
Allowed answers: T for active, F for inactive

| molecule | assigned.category |
| --- | --- |
| CCC(C)[C@H](NC(=O)Nc1cc(C(F)(F)F)cc(C(F)(F)F)c1)C(=O)N[C@@H](Cc1cn(C)cn1)C(=O)OC (stereo partly specified) | T |
| Brc1ccc(-c2nc3ccccc3s2)cc1 | F |
| COC(c1ccccc1)C(Br)C(=O)c1ccccc1 (stereo unspecified) | F |
| CCCCCCCCCCCCc1ccc([N+](CC)(CC)CC)cc1 | F |
| O=C(/C=C/c1ccc(Cl)cc1)c1ccc(Cl)cc1 | F |

Here is another molecule to look at.
INPUT: Fill in: this test's call for NNC(=O)CNc1ccc2ccccc2c1 is ___
OUTPUT: T

---

System: MCF7 breast
experimental.details: NCI-60 one-dose screen, 48 h (100 = growth as untreated, 0 = no growth, -100 = all killed)
measurement.setup: 10 µM unless noted
About 83,000 compounds went through this panel and 20% of them were active in at least one assay; those are over-represented in the sample as a whole.
Some molecules, each annotated with its measured growth.
Report the value in % with no unit label.

INPUT: Entry O=C(N/N=C\c1ccc(Cl)cc1)C(=O)N/N=C\c1ccc(Cl)cc1 needs its growth filled in; supply it.
OUTPUT: 96.5

INPUT: Quickly give me recorded growth for O=C(Nn1cnc2ccccc21)N1CCCC1
OUTPUT: 108

INPUT: Item COc1cc2c(c(OC)c1OC)C(=O)CC(c1cccc(C(=O)Nc3cccc(Br)c3)c1)O2 (configuration not stated) : provide growth
OUTPUT: 68.3

INPUT: Please indicate growth recorded for NC(N)=N/N=C/c1cccc(Br)c1
OUTPUT: 90.5

INPUT: Determine from records and report growth for NNC(=O)CNc1ccc2ccccc2c1
OUTPUT: 102

INPUT: Provide only the value of recorded growth for CC1Cc2cc(F)ccc2-n2cccc21 (configuration not stated)
OUTPUT: 107

INPUT: Supply recorded growth for COc1cc(N)c2nccc(C)c2c1OC here.
OUTPUT: 113

---

System: SF-268 CNS
experimental.details: NCI-60 one-dose screen, 48 h (100 = growth as untreated, 0 = no growth, -100 = all killed)
measurement.setup: 10 µM unless noted
This is part of a sample that, as a whole, favours compounds with a hit. Of some 83,000 tested, about 20% had one in any assay.
Reported values of growth for individual entries
Lab book: enter the figure in %, no units written.

Some solved entries appear below for comparison.
| compound | growth / % |
| --- | --- |
| C[C@@H](c1ccc2c(c1)[nH]c1ccc(Cl)cc12)c1nc2ccc(Cl)cc2[nH]1 | 80.9 |
| CC(=O)Oc1cc2ccccc2cc1C(C)C | 111 |
| COC(=O)/C(Br)=C/c1c[nH]c2ccc(Br)cc12 | 97.7 |
| C/C=C/C/C=C/[C@H](C)C[C@H](O)[C@@H]1C[C@@H]2O[C@H]2/C=C/[C@H](O)[C@@H](O)/C=C/C[C@H](C)CC(=O)O1 | 85.8 |
| O=C1C(Cl)=C(SC2=NCCN2)C(=O)c2ccccc21 | 62.1 |

INPUT: Complete the entry with growth for O=C(NCCNCCO)c1cc([N+](=O)[O-])cc([N+](=O)[O-])c1O
OUTPUT: 102

INPUT: Give a short answer stating reported growth for COc1cc2ncnc(-n3ncc4cc(NC(=O)Nc5ccccc5)ccc43)c2cc1OC .
OUTPUT: 21.7

INPUT: Annotate the compound CNCCCNCCCCNCCCN1C(=O)c2ccc3c4c(ccc(c24)C1=O)C(=O)N(CCCNCc1ccccc1OC)C3=O with its measured growth.
OUTPUT: 17.7

INPUT: Entry Clc1ccc(N/N=C(\c2ccccc2)c2ccccn2)nc1 needs its growth filled in; supply it.
OUTPUT: 10.5

INPUT: Determine its reported growth: O=C(N/N=C/c1coc2ccccc2c1=O)c1cc2oc(-c3ccccc3)cc2[nH]1
OUTPUT: 96.2

INPUT: Please give measured growth of the following entry: COc1cc(-c2nn(-c3ccc(NC(=O)Nc4ccc(Cl)c(Cl)c4)cc3)cc2-c2ccncc2)ccc1Cl
OUTPUT: 44.3

INPUT: Using the record for C[C@]12CC[C@H]3[C@@H](CC[C@H]4C[C@@H](O)CC[C@@]43C)[C@@H]1CC(=O)C2 , state its measured growth.
OUTPUT: 97.9

INPUT: Identify growth associated with the compound CC(=O)N1CCN(CCNC(=O)n2cc(-c3ccncc3)c(-c3ccc(O)c(Cl)c3)n2)CC1
OUTPUT: 107

INPUT: Return growth (reported value) for this compound: CCNc1nnc(COc2ccc(CNC(=O)CCCC/C=C/C(C)C)cc2OC)o1
OUTPUT: 97.1

INPUT: Quick one: give measured growth for c1cc(C2CCCCC2)ccc1OCCCCCCN1CCNCC1
OUTPUT: 54.5

INPUT: Return growth for the following compound: N#CCCCCCCCCCCC#N
OUTPUT: 109

INPUT: Return the recorded growth value; entry: CCCCS(=O)(=O)c1cc(Nc2ccc(O)c3c2C(=O)c2ccccc2C3=O)ccc1C
OUTPUT: 84.5

INPUT: Specify reported growth for the compound shown: O=C(CCC(=O)N(CCO)CCO)N(CCO)CCO
OUTPUT: 108

INPUT: Identify the reported growth for the following entry. c1ccc(Nc2ncc3c(n2)-c2cccn2CC3)cc1
OUTPUT: 85.8

INPUT: Tell us which growth value is on record for [2H]c1nc(=Nc2cc(NC(=O)C=C)c(N(C)CCN(C)C)cc2OC)[nH]c(-c2cn(C([2H])([2H])[2H])c3ccccc23)c1[2H]
OUTPUT: 51.2
